System: C57BL/6 J mice
Assay Text: Body temperature change in mice (dose-response sessions)
Assay type: in vivo, mouse
Experimental Parameters: 10 mg/kg s.c.; pre to post 30-min session; mean ± SEM
Label not met if ΔTemperature falls below -2 °C; label met in every other case.

| Molecule | Discrete Label |
| --- | --- |
| CCCCc1cc(OC)c(CC(C)N)cc1OC (centres unmarked) | met |

Q: Check the entry CCCCCc1cc(OC)c(CC(C)N)cc1OC (centres unmarked) : does ΔTemperature equal or exceed -2 °C?
Ans: met

Q: Check the entry COc1ccc(OC)c(CC(C)N)c1.Cl (centres unmarked) [2,5-DMA, 2,5-Dimethoxyamphetamine hydrochloride] : does ΔTemperature equal or exceed -2 °C?
Ans: met

Q: Check the entry CCCc1cc(OC)c(CC(C)N)cc1OC.Cl (centres unmarked) : does ΔTemperature equal or exceed -2 °C?
Ans: not met

Q: Check the entry COc1cc(CC(C)N)c(OC)cc1C (centres unmarked) : does ΔTemperature equal or exceed -2 °C?
Ans: not met

* * *

Target: h5-HT2A (Homo sapiens)
Assay Text: β-arrestin 2 recruitment (NanoBiT), h5-HT2A
Type: cell-based
Set-up: expressed in transfected cells
Experimental Parameters: read-out: β-arrestin 2 recruitment Emax h5-HT2A (95% CI)
Reported Endpoint: Emax (%)
Give bare numbers, in %.

| Molecule | Emax / % |
| --- | --- |
| CCCCc1cc(OC)c(CC(C)N)cc1OC (stereo not drawn) [DOBU, 4-butyl-2,5-dimethoxyamphetamine] | 96 |
| CCCc1cc(OC)c(CC(C)N)cc1OC.Cl (stereo not drawn) [DOPR] | 105 |
| COc1ccc(OC)c(CC(C)N)c1.Cl (stereo not drawn) [2,5-DMA, 2,5-Dimethoxyamphetamine hydrochloride] | 83 |
| CCc1cc(OC)c(CC(C)N)cc1OC (stereo not drawn) [DOET, 4-ethyl-2,5-dimethoxyamphetamine] | 99 |
| CCCCCc1cc(OC)c(CC(C)N)cc1OC (stereo not drawn) [DOAM, 4-amyl-2,5-dimethoxyamphetamine] | 85 |

Field: next molecule
Q: Need Emax of COc1cc(CC(C)N)c(OC)cc1C (stereo not drawn) [DOM, 4-methyl-2,5-dimethoxyamphetamine] , thanks.
Ans: 97

* * *

Target: h5-HT2A (Homo sapiens, UniProt P28223)
Sequence (P28223 whole entry, looked up): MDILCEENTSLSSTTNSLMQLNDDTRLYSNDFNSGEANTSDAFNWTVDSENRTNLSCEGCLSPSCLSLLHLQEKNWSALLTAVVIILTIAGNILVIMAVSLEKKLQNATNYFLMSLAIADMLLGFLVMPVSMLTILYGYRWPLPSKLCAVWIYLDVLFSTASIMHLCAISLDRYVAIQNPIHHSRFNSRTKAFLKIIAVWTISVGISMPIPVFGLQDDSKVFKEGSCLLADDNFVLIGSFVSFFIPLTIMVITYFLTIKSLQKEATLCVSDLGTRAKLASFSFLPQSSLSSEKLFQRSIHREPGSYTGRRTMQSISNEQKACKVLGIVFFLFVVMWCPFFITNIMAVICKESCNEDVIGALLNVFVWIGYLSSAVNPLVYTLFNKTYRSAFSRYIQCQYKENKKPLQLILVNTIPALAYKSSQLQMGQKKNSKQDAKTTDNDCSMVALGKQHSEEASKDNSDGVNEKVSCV
Assay Text: IP1 formation (Gαq-mediated signaling), h5-HT2A
Format: cell-based
Design: expressed in transfected cells; host or cells: HEK 293 cells (membrane preparation)
Reported Endpoint: pEC50
Answers are plain numbers, as −log10 of the molar value.

| Compound | pEC50 |
| --- | --- |
| COc1cc(CC(C)N)c(OC)cc1C (centres unmarked) | 7.68 |
| CCCc1cc(OC)c(CC(C)N)cc1OC.Cl (centres unmarked) | 8.72 |
| CCCCCc1cc(OC)c(CC(C)N)cc1OC (centres unmarked) | 8.09 |

Hi, could you look up pEC50 for each item in my list?
1. CCc1cc(OC)c(CC(C)N)cc1OC (centres unmarked)
2. CCCCc1cc(OC)c(CC(C)N)cc1OC (centres unmarked)

Ans:
7.92
8.55

* * *

// values below are pKi; system is hD2 (Homo sapiens)
Sequence (P14416 whole entry): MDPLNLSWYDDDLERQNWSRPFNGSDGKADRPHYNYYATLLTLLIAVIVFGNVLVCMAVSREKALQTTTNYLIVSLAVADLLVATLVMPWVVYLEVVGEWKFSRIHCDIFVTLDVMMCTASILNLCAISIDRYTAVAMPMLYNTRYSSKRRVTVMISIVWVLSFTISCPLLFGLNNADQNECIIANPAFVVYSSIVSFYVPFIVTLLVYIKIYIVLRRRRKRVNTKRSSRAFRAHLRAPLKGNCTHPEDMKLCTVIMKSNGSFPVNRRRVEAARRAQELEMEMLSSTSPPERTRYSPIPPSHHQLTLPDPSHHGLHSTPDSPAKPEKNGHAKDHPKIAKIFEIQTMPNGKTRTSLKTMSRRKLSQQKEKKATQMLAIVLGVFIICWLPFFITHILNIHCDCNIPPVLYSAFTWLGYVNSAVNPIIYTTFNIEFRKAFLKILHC
pKi: −log10 of the molar value.

Example entries and their recorded answers appear below.
| Molecule | Target | pKi |
| --- | --- | --- |
| COc1ccc(OC)c(CC(C)N)c1.Cl (centres unmarked) [2,5-DMA, 2,5-Dimethoxyamphetamine hydrochloride] | hD2 (Homo sapiens) | < 4.89 |
| CCCCc1cc(OC)c(CC(C)N)cc1OC (centres unmarked) | hD2 (Homo sapiens) | < 4.89 |
| COc1cc(CC(C)N)c(OC)cc1C (centres unmarked) | hD2 (Homo sapiens) | < 5.12 |
| CCCCCc1cc(OC)c(CC(C)N)cc1OC (centres unmarked) | hD2 (Homo sapiens) | < 4.89 |

Field: next molecule
Q: What measured pKi is associated with CCc1cc(OC)c(CC(C)N)cc1OC (centres unmarked) on hD2 (Homo sapiens)?
Ans: < 4.89

* * *

Assay Text: In vivo microdialysis (striatum) with plasma and brain levels after co-administration of DOM and DOAM
Parameters: species or system mouse
Experimental Parameters: both sexes, C57BL/6JRj, mouse, plasma, subcutaneous; 0.5 mg/kg s.c. each, 30 min post injection, mice; read-out: Plasma level after co-administration of DOM and DOAM
Reported Endpoint: concentration at 30 min (ng/mL)
Give bare numbers, in ng/mL.

| Compound | concentration at 30 min (ng/mL) |
| --- | --- |
| CCCCCc1cc(OC)c(CC(C)N)cc1OC (centres unmarked) | 12 |

Q: Need concentration at 30 min of COc1cc(CC(C)N)c(OC)cc1C (centres unmarked) , thanks.
Ans: 26

* * *

Target: h5-HT2A (Homo sapiens, UniProt P28223)
Assay Text: β-arrestin 2 recruitment (NanoBiT), h5-HT2A
Type: cell-based
Design: expressed in transfected cells
Give measured pEC50 for each item. Keep answers brief.
Numbers only, as −log10 of the molar value.

Example entries and their recorded answers appear below.
| Compound | Result |
| --- | --- |
| CCCCc1cc(OC)c(CC(C)N)cc1OC (centres unmarked) [DOBU, 4-butyl-2,5-dimethoxyamphetamine] | 7.62 |
| CCCc1cc(OC)c(CC(C)N)cc1OC.Cl (centres unmarked) [DOPR] | 8.03 |
| COc1cc(CC(C)N)c(OC)cc1C (centres unmarked) [DOM, 4-methyl-2,5-dimethoxyamphetamine] | 7.26 |

Hi, could you look up pEC50 for each item in my list?
1. CCc1cc(OC)c(CC(C)N)cc1OC (centres unmarked) [DOET, 4-ethyl-2,5-dimethoxyamphetamine]
2. CCCCCc1cc(OC)c(CC(C)N)cc1OC (centres unmarked) [DOAM, 4-amyl-2,5-dimethoxyamphetamine]

Ans:
1: 7.92; 2: 7.25

* * *

Target: hDAT (Homo sapiens, UniProt Q01959)
Construct: expressed in transfected cells; host or cells: HEK 293 cells (membrane preparation)
Sequence (Q01959 whole entry): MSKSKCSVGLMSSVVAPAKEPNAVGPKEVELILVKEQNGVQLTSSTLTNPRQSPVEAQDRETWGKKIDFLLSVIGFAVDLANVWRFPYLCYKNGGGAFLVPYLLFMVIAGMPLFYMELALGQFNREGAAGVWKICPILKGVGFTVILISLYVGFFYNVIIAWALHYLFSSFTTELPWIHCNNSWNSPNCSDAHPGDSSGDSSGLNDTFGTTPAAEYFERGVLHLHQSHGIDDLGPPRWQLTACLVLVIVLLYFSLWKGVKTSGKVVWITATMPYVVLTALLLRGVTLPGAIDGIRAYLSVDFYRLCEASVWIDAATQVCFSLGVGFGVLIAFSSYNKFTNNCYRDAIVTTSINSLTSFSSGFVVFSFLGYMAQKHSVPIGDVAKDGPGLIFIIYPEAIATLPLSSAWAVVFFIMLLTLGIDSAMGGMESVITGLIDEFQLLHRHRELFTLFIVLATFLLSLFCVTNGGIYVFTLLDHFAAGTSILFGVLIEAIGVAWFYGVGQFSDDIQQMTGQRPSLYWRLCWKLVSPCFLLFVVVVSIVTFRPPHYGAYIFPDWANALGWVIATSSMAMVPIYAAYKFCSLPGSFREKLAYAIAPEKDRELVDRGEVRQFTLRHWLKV
Assay Text: Radioligand binding, hDAT ([3H]WIN35,428)
Experimental Parameters: hDAT Ki, mean (95% CI); HEK 293 membranes
Reported Endpoint: Ki

Example entries and their recorded answers appear below.
| Compound | Target | Ki |
| --- | --- | --- |
| CCCCCc1cc(OC)c(CC(C)N)cc1OC (stereo not drawn) | hDAT (Homo sapiens, UniProt Q01959) | 3.64 µM |
| COc1ccc(OC)c(CC(C)N)c1.Cl (stereo not drawn) [2,5-DMA, 2,5-Dimethoxyamphetamine hydrochloride] | hDAT (Homo sapiens, UniProt Q01959) | > 8 µM |
| CCCCc1cc(OC)c(CC(C)N)cc1OC (stereo not drawn) | hDAT (Homo sapiens, UniProt Q01959) | > 8 µM |
| COc1cc(CC(C)N)c(OC)cc1C (stereo not drawn) | hDAT (Homo sapiens, UniProt Q01959) | > 8 µM |
| CCCc1cc(OC)c(CC(C)N)cc1OC.Cl (stereo not drawn) | hDAT (Homo sapiens, UniProt Q01959) | > 8 µM |

Q: Need Ki of CCc1cc(OC)c(CC(C)N)cc1OC (stereo not drawn) , thanks.
Ans: > 8 µM

* * *

Target: h5-HT2A (Homo sapiens, UniProt P28223)
Assay Text: Arachidonic acid release (Gαi/o,12/13 marker), h5-HT2A
Format: cell-based
Set-up: expressed in transfected cells; host or cells: HEK 293 cells (membrane preparation)
Experimental Parameters: read-out: Arachidonic acid release Emax h5-HT2A (95% CI)
Mark each entry Yes if its Emax sits below 80%, and No for all others.

Past entries and their recorded results:
| Molecule | Discrete Label |
| --- | --- |
| CCc1cc(OC)c(CC(C)N)cc1OC (stereo not drawn) [DOET, 4-ethyl-2,5-dimethoxyamphetamine] | No |
| CCCCc1cc(OC)c(CC(C)N)cc1OC (stereo not drawn) [DOBU, 4-butyl-2,5-dimethoxyamphetamine] | Yes |
| COc1ccc(OC)c(CC(C)N)c1.Cl (stereo not drawn) [2,5-DMA, 2,5-Dimethoxyamphetamine hydrochloride] | Yes |
| COc1cc(CC(C)N)c(OC)cc1C (stereo not drawn) [DOM, 4-methyl-2,5-dimethoxyamphetamine] | Yes |
| CCCc1cc(OC)c(CC(C)N)cc1OC.Cl (stereo not drawn) [DOPR] | No |

Now examine the next entry.
Q: Given CCCCCc1cc(OC)c(CC(C)N)cc1OC (stereo not drawn) [DOAM, 4-amyl-2,5-dimethoxyamphetamine] , is recorded Emax strictly lower than 80%?
Ans: No

* * *

Target: hSERT (Homo sapiens, UniProt P31645)
Construct: expressed in transfected cells; host or cells: HEK 293 cells (membrane preparation)
Sequence (P31645 whole entry): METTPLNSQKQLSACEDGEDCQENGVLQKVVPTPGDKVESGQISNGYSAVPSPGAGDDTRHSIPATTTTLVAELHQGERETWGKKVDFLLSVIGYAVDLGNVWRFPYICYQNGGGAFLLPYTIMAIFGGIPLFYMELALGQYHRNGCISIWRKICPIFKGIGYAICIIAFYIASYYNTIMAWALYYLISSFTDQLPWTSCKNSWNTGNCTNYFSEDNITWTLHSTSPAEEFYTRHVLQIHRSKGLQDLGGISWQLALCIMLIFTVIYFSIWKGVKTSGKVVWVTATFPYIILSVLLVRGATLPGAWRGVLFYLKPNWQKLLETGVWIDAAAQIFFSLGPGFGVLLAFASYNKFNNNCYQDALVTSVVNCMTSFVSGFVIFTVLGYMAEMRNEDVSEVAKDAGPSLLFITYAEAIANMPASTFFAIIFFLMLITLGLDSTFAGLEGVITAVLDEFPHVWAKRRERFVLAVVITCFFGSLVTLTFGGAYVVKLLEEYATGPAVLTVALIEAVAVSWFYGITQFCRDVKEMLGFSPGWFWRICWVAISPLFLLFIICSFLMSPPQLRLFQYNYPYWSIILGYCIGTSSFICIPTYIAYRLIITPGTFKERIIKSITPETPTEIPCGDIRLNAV
Assay Text: Radioligand binding, hSERT ([3H]citalopram)
Experimental Parameters: Ki SERT, text value (range DAT and SERT 3.6–4.6)
Description: Binding affinities at human monoamine receptors and transporters were assessed as previously reported. A detailed description of the methodology is provided in the Supplementary information. The IC50 values from the radioligand binding assays were determined by nonlinear regression, using three independent concentration-response curves fitted to a one-site model. […] EC50 values were determined by applying nonlinear regression to concentration-response curves. […]
Reported Endpoint: pKi
Give bare numbers, as −log10 of the molar value.

Q: What measured pKi is associated with CCCCCc1cc(OC)c(CC(C)N)cc1OC (stereo not shown) on hSERT (Homo sapiens, UniProt P31645)?
Ans: 5.34

Data origin, for the record: paper PMC12916490
